Organism: Rattus norvegicus
protocol: Open TG-GATES - Regimen: Single
Type: toxicity, organism-based, Sprague-Dawley
Parameters: regimen Single, gender Male, age 6 weeks
stated conditions: in vivo, po, 1000 mg/kg, 3 h, tissue Plasma, route gavage, dose level High
# if measured ALT < 40 IU/L: T  # else: F

Answered cases to consult:
q: Strictly below 40 IU/L in ALT? COc1ccc2[nH]c([S+]([O-])Cc3ncc(C)c(OC)c3C)nc2c1 (stereo not given)
a: T

q: Strictly below 40 IU/L in ALT? "COC1=CC(=O)C[C@@H](C)[C@]12Oc1c(Cl)c(OC)cc(OC)c1C2=O"
a: T

q: Strictly below 40 IU/L in ALT? CCOC(=O)CCC(=O)O[C@H]1[C@H](O[C@@H]2[C@@H](C)[C@H](O[C@H]3C[C@@](C)(OC)[C@@H](O)[C@H](C)O3)[C@@H](C)C(=O)O[C@H](CC)[C@@](C)(O)[C@H](O)[C@@H](C)C(=O)[C@H](C)C[C@@]2(C)O)O[C@H](C)C[C@@H]1N(C)C [ERYTHROMYCIN ETHYLSUCCINATE]
a: F

***
q: Strictly below 40 IU/L in ALT? CC(C)OC(=O)C(C)(C)Oc1ccc(C(=O)c2ccc(Cl)cc2)cc1 [FENOFIBRATE]
a: F

q: Strictly below 40 IU/L in ALT? "NC(N)=Nc1nc(CSCCC(N)=NS(N)(=O)=O)cs1"
a: T

Source: ChEMBL document CHEMBL3885861
